System: MCF7 breast
Assay: NCI-60 one-dose screen, 48 h (100 = growth as untreated, 0 = no growth, -100 = all killed)
Details: 10 µM unless noted
About 83,000 compounds went through this panel and 20% of them were active in at least one assay; those are over-represented in the sample as a whole.
Property: growth; scope: individual compounds
Readout name: growth (%)

>>> df
                                smiles_code  readout_name  assay_value
0  Cc1ccc(-c2ccc(/C=C(\C#N)c3nc(-c4ccco4)cs3)o2)cc1        growth         14.5
1  O=C(NO)c1ccc(Cn2c(=O)n(CCc3ccc(O)cc3)c(=O)c3ccccc32)cc1        growth         44.5
2  Clc1ccc2c(NCCNc3nc(-c4ccccc4)cc(-c4ccccc4)n3)ccnc2c1        growth        -68.7
